Biological target: mouse melanocortin-4 receptor (mouse, UniProt P56450 1-332)
Sequence (P56450 whole entry): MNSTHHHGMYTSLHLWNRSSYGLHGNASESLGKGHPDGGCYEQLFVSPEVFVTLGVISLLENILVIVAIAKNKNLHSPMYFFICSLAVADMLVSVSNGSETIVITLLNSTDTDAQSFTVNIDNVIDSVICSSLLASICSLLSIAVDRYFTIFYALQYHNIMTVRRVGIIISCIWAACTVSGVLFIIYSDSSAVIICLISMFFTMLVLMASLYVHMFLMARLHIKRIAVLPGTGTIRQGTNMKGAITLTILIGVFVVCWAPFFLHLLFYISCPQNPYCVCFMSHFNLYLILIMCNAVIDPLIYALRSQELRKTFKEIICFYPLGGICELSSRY
Assay: cell-based or functional assay
Give measured EC50 (agonist) for each item. Keep answers brief.
Entry rule: numbers only, all in nM.

input: I would be grateful if you could share the reported EC50 (agonist) for YDHXRXNAFXY (Asp-Dpr side chain lactam bridge; Dpr; DPhe; Tic; C-terminal amide (amide resin)) [SEQ ID NO:42 (Tyr-c[Asp-His-DPhe-Arg-Tic-Asn-Ala-Phe-Dpr]-Tyr)] .
output: 260

input: I would be grateful if you could share the reported EC50 (agonist) for YDAXRWNAFXY (Asp-Dpr side chain lactam bridge; Dpr; DPhe; C-terminal amide (amide resin)) [SEQ ID NO:24 (Tyr-c[Asp-Ala-DPhe-Arg-Trp-Asn-Ala-Phe-Dpr]-Tyr)] .
output: 0.36
